src = patent US20180195054A1

Kindly state pKd for each of the entries shown.
Target: T1, biotinylated CD47 IgSF domain (human CD47 residues 19-135 / residues 1-117, C15G) (human, UniProt Q08722 19-135, biotinylated with BirA ligase at the C-terminal biotin acceptor peptide tag)
T1 construct: range 19-135; Captured on a Biacore SA chip for SPR; C15G is counted on the mature domain (1-117), not on the precursor; also called immobilized CD47
T1 sequence (Q08722 other isoform, or with tags, fused parts or gaps C15G C15G limits assumed): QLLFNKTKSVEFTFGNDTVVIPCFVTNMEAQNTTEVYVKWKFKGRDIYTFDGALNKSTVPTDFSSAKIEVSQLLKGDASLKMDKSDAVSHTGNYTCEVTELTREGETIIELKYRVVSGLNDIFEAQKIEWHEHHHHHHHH
Assay: SPR (Biacore T100, 25 C), biotinylated CD47 captured on SA chip, SIRPα variant in solution, 1:1 Langmuir model
// pKd: -log10(molar conc.)

Given item 2D3 (designed binder, also called 2D3 mutant d1 domain) SIRPα d1 domain variant: EEEVQIIQPDKSVSVAAGESVILHCTITSLTPVGPIQWFRGAGPARLLIYNQREGPFPRVTTVSETTRRENMDFSISISNITPADAGTYYCVKLRKGSPDTEFKSGAGTELSVRAKPS , the value recorded as its pKd is 9.07

FA4 (designed binder, also called FA4 mutant d1 domain; FA4 monomer (unbiotinylated, SPR analyte)) SIRPα d1 domain variant: EEELQIIQPDKSVSVAAGESAILHCTITSLTPVGPIQWFRGAGPARVLIYNQRQGPFPRVTTVSEGTRRENMDFSISISNITPADAGTYYCIKFRKGSPDTEVKSGAGTELSVRAKPS has a reported pKd of 10.47

Record summary for 2F5 (designed binder, also called 2F5 mutant d1 domain) SIRPα d1 domain variant: EEEVQLIQPDKSVSVAAGESAILHCTVTSLFPVGPIQWFRGAGPARVLIYNQREGPFPRVTTVSEGTKRENMDFSISISNITPADAGTYYCIKFRKGSPDTEVKSGAGTELSVRAKPS : reported pKd = 9.56

Note to self: pKd recorded for high-affinity SIRPα variant CV1 monomer (consensus variant 1, d1 domain) (designed binder, Nine consensus substitutions grafted onto wild-type SIRPα allele 2) EEELQIIQPDKSVLVAAGETATLRCTITSLFPVGPIQWFRGAGPGRVLIYNQRQGPFPRVTTVSDTTKRNNMDFSIRIGNITPADAGTYYCIKFRKGSPDDVEFKSGAGTELSVRAKPSHHHHHHHH was 10.95
